Source of measurements: paper PMC7070682

# Measurement target: porcine lipase (Sus scrofa)
# Sequence (P00591 whole entry): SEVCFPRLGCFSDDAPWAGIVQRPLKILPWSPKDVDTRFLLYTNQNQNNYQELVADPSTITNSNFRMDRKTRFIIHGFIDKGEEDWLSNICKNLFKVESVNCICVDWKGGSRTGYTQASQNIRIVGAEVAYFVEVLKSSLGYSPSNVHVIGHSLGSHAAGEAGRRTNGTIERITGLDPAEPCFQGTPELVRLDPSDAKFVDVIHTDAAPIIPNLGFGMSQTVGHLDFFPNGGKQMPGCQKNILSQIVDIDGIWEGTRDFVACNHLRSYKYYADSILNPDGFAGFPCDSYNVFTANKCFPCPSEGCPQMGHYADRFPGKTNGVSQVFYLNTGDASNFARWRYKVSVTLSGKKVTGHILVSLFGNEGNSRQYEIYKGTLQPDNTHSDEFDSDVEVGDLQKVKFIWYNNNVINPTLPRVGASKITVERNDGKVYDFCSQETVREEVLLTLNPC
# Experiment notes: Pancreatic lipase assay (p-nitrophenyl butyrate hydrolysis)
# Assay type: biochemical
# Test context: p-nitrophenyl butyrate substrate
Measurement kind: IC50
Respond with the figure and its unit, in that order.

{"Compound": "Cc1cc(O)c2c3c(c(O)c4c(c13)O[C@@H](C)C4(C)C)C(=O)C(=O)O2 [Compound 1, scleroderolide]", "IC50": "3400 nM"}

Consider now this further compound.
Input: Give IC50 for Cc1cc(O)c2c3c(c(O)c4c(c13)O[C@@H](C)C4(C)C)C(=O)C2=O tested on porcine lipase (Sus scrofa).
Output: 1000 nM

###

# Test system: mouse fibroblast (L929) cells
# Experiment notes: Cytotoxicity assessment vs. L929
# Assay type: cell-based
Provide the recorded IC50 for the entries that follow.
Answers are plain numbers, in µg/mL.

Worked cases, IC50 given:
{"Compound": "Cc1cc(O)c2c3c(c(O)c4c(c13)O[C@@H](C)C4(C)C)C(=O)C(=O)O2 [Compound 1, scleroderolide]", "Readout units": "µg/mL", "Endpoint result": 15}
{"Compound": "Cc1cc(O)c2c3c(c(O)c4c(c13)O[C@@H](C)C4(C)C)C(=O)C2=O", "Readout units": "µg/mL", "Endpoint result": 27}
{"Compound": "C/C(=C\\c1csc(C)n1)[C@@H]1C[C@@H]2O[C@]2(C)CCC[C@H](C)[C@H](O)[C@@H](C)C(=O)C(C)(C)[C@@H](O)CC(=O)O1 [Epothilone B, reference compound]", "Readout units": "µg/mL", "Endpoint result": 0.0009}

Consider now this further compound.
Input: Give IC50 for Cc1cc(O)cc2c1C1=C(C(=O)C2=O)C(C)(C)[C@H](C)O1 tested on mouse fibroblast (L929) cells.
Output: 2.7
